B1: Hairpin Ribozyme (parent)
chain: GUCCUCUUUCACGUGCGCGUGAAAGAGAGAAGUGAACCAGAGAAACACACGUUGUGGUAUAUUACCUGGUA

variants of: B1; test: self-cleavage, relative activity (ratio to wild type); higher = more cleavage; co-transcriptional
Catalogue of self-cleavage values
API note: the answer field is a bare number with no unit suffix.

[
  {
    "Sequence Data": "GUCCUCUUUCACGUCCGCGUAAAAGAGAGAAGUGAACCAGAGAAACACACGUUGUGGUAUAUUACCUGGUA [G15C G21A]",
    "self-cleavage": 0.76
  }
]

Query: self-cleavage; subject: GUCCUCUUUCACGUGCGCGUGAAAGAGAGUAGUGAACCAGUGAAACACACGUUGUGGUAUAUUACCUGGUA [A30U A41U] 0.232

Bench note: what self-cleavage did GUCCUCUUUCACGUGCGAGUGAAAGAGAGAAGUGAACCAUAGAAACACACGUUGUGGUAUAUUACCUGGUA [C18A G40U] show? 0.174

Param item = GUCCUCUUUCACGUGUGCGUGAAAGAGAGAAGUGAACCAGAGAAACACACGUUCUGGUAUAUUACCUGGUA [C16U G54C] ; retrieve measured self-cleavage. 0.411

Recorded self-cleavage for GUCCUCUUCCACGUGCGCGUGAAAGAGAGAAGUGAACCAGAGAAACACACGUUGUCGUAUAUUACCUGGUA [U9C G56C] , please? 0.158

For GUCCUAUUUCACGUGCGCGUGAAAGAGAGAAGUGAACCAGAGAAACACACGGUGUGGUAUAUUACCUGGUA [C6A U52G] , what is its reported self-cleavage? 0.547

I would be grateful if you could share the reported self-cleavage for GCCCUCUUUCACGUGCGCGUGAAAGAGUGAAGUGAACCAGAGAAACACACGUUGUGGUAUAUUACCUGGUA [U2C A28U] . 0.0802

Recorded self-cleavage for GUCCUCUUUCACGAGCGCGUGAAAGAGAGAAGUGAACCAGAGAAACACACGUUGUCGUAUAUUACCUGGUA [U14A G56C] , please? 0.168
